Value source: PubChem BioAssay AID1919008

- System: DMS-114 complex spheroids with HUVEC/MSC, growth % test/control
- MEASUREMENT NOTES: Anticancer human tumor DMS-114 cell line growth inhibition [AhR];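 note: spheroids exposed to agents for 7 days before readout; 100% = DMSO vehicle control wells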
- CONDITION CONTEXT: second compound 0.1 µM; first compound 0.1 µM; stronger effect = lower value
Listing: viability, T/C of selected compounds
READOUT KIND: viability, T/C

# COMPOUND, RECORDED VALUE
data = [
    ("CC1COCCN1c1cc(-c2ccnn2C)c2ccnc(-c3ccn[nH]3)c2n1 (stereo unspecified) + Cc1cncc(-c2nc(NCCc3c[nH]c4ccccc34)c3ncn(C(C)C)c3n2)c1", "29.9%"),
    ("COc1cccc2c1C(=O)c1c(O)c3c(c(O)c1C2=O)CC(O)(C(=O)CO)CC3OC1CC(N)C(O)C(C)O1 (stereo unspecified) + Cc1cncc(-c2nc(NCCc3c[nH]c4ccccc34)c3ncn(C(C)C)c3n2)c1", "17.7%"),
    ("Nc1ccccc1NC(=O)c1ccc(CNC(=O)OCc2cccnc2)cc1 + Cc1cncc(-c2nc(NCCc3c[nH]c4ccccc34)c3ncn(C(C)C)c3n2)c1", "87.5%"),
    ("COc1ccc([C@@H](O)c2cc(-c3ncnc4cc(N5CCOCC5)ccc34)c(F)cc2Cl)nn1 + Cc1cncc(-c2nc(NCCc3c[nH]c4ccccc34)c3ncn(C(C)C)c3n2)c1", "95.8%"),
    ("CC1COCCN1c1cc(-c2ccnn2C)c2ccnc(-c3ccn[nH]3)c2n1 (stereo unspecified) + CC(CO)NC(=O)c1cc(-c2ccc(Cl)cc2)nn(-c2cnn(C)c2)c1=O", "34.4%"),
    ("O=C(c1cc(Cc2n[nH]c(=O)c3ccccc23)ccc1F)N1CCN(C(=O)C2CC2)CC1 + Cc1ccccc1N=Nc1ccc(NC(=O)c2ccnn2C)c(C)c1", "107%"),
]
